So I've got a bunch of compounds here, and I need their residual activity values.
target: RET (human); assay: radiometric filter-binding kinase assay, Kinase HotSpot; conditions: compound 0.5 µM; ATP 10 µM
Give bare numbers, in %.

The examples below pair each entry with its known result.
### Prompt Returns the measured residual activity for the input compound. Input: Cn1c2ccccc2c2c3c(c4c5ccccc5n(CCC#N)c4c21)CNC3=O
### Response 0.516

### Prompt If you can, please state the reported residual activity value of COc1ccc2c(c1)c(C1=C(c3c[nH]c4ccccc34)C(=O)NC1=O)cn2CCCN(C)C .
### Response 79.9

### Prompt Data request, read-out residual activity, for Cc1nc(-c2ccccc2)c(-c2ccncc2)o1
### Response 97.5

### Prompt Looking for the measured residual activity of O=C1c2ccccc2-c2nc3nnnn3nc21 , can you help?
### Response 101

### Prompt Form field: reported residual activity of COc1cc2ncnc(Nc3ccc(Oc4ccccc4)cc3)c2cc1OC
### Response 40.6

For the 4 compounds below, give their residual activity values.
1. O=C1Nc2ccc(Br)cc2/C1=C\c1cc2c([nH]1)CCCC2
2. CC(C)(C)c1cc(C=C(C#N)C#N)cc(Br)c1O
3. CN(C)CCCn1cc(C2=C(c3c[nH]c4ccccc34)C(=O)NC2=O)c2ccccc21
4. C[C@@H]1CCN(C(=O)CC#N)C[C@@H]1N(C)c1ncnc2[nH]ccc12

### Response
1: 42.9; 2: 98.2; 3: 93.4; 4: 92.4

Could you report residual activity for every entry in the following list?
1. CN(C)c1ccc(/C=C2\C(=O)Nc3ccccc32)cc1
2. Cc1cccc(-c2nc(C(C)(C)C)[nH]c2-c2ccc3c(c2)OCO3)n1

### Response
1: 78; 2: 103

* * *

molecular target: UniProtKB P30291; test: radiometric filter-binding kinase assay, Kinase HotSpot; settings: compound 0.5 µM; ATP 10 µM
Sequence (P30291 whole entry, looked up): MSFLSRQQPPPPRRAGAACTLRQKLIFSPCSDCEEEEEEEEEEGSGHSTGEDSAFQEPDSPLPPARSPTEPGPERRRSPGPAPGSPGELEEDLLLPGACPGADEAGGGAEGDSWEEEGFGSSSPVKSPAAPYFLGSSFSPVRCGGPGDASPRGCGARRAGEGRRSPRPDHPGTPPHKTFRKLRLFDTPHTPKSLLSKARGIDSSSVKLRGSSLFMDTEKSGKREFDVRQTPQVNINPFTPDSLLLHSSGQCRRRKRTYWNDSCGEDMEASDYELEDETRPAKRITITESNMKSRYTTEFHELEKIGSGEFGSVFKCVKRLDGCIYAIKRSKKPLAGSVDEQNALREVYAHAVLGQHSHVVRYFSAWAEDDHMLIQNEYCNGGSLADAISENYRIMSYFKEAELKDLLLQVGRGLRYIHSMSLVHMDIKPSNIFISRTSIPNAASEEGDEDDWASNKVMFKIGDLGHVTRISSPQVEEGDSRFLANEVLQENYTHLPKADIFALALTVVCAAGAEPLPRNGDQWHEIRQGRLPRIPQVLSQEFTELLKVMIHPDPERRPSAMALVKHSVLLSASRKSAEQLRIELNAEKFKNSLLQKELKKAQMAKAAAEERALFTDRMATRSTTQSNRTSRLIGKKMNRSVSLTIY
Values of residual activity greater than or equal to 90% map to Y; values below map to N.

### Prompt Assess whether reported residual activity for Cn1c2ccccc2c2c3c(c4c5ccccc5n(CCC#N)c4c21)CNC3=O sits at 90% or higher.
### Response N

### Prompt Test whether the molecule COc1ccc(S(=O)(=O)N(CCO)c2ccccc2CN(C)C/C=C/c2ccc(Cl)cc2)cc1 records residual activity of 90% or higher.
### Response Y

### Prompt Textbook exercise: given the entry CS(=O)(=O)CCNCc1ccc(-c2ccc3ncnc(Nc4ccc(OCc5cccc(F)c5)c(Cl)c4)c3c2)o1 , state whether its residual activity is greater than or equal to 90%.
### Response Y

### Prompt # check: residual activity of COc1cc2ncnc(Nc3ccc(Oc4ccccc4)cc3)c2cc1OC is greater than or equal to 90%
### Response Y

---
### Prompt Could you verify whether the entry CN(C)S(=O)(=O)c1ccc2c(c1)/C(=C/c1cc3c([nH]1)CCCC3)C(=O)N2 shows residual activity of no less than 90%?
### Response Y

### Prompt Does the molecule N#Cc1c[nH]c2c[nH]/c(=N\Cc3cccnc3)cc2/c1=N\c1ccc(F)c(Cl)c1 have recorded residual activity that is 90% or more?
### Response N

### Prompt Is the recorded value of residual activity equal to or greater than 90% for this molecule? Cc1cncc2cccc(S(=O)(=O)N3CCCN(C(=O)CN)C[C@H]3C)c12
### Response Y

### Prompt Does NC(=O)c1cccc(-c2cc(Nc3ccc(OC(F)(F)F)cc3)ncn2)c1 have a reported residual activity of at least 90%?
### Response Y

### Prompt Quick check, residual activity >= 90%? O=C1Nc2ccc(Br)cc2/C1=C\c1cc2c([nH]1)CCCC2
### Response Y

### Prompt Evaluate COc1ccc2c(c1)/C(=C/c1cnc[nH]1)C(O)=N2 : residual activity at minimum 90%?
### Response Y

### Prompt Kindly determine if residual activity recorded for CCCCc1c(-c2ccc(OC)cc2)[nH]c2nccnc12 is above or exactly 90%.
### Response N

### Prompt Does residual activity meet or surpass 90% for Ic1cccc(CSc2nnc(-c3ccncc3)o2)c1 ?
### Response Y

### Prompt Answer whether residual activity of CN(C)CCCn1cc(C2=C(c3c[nH]c4ccccc34)C(=O)NC2=O)c2ccccc21 is greater than or equal to 90%.
### Response Y

### Prompt Check this molecule for residual activity at or above 90%: Cc1cccc(-c2nc(C(C)(C)C)[nH]c2-c2ccc3c(c2)OCO3)n1
### Response N
